The following molecules are shown together with reported % Inhibition values.
System: Vasopressin V1
Assay: Vasopressin V1 Antagonist Activity in Conscious Rats (vasopressin vasopressor response)
Format: in vivo, rat
Conditions: 20 mg/kg i.v., VAS 0.01 i.u./kg, 240 min, SHR
QUANTITY: % Inhibition (%)

* Cc1c(CC(=O)Nc2ccc(C(=O)N3Cc4cccn4Cc4ccccc43)cc2)sc2ccccc12 | 54
* Cc1cc(C(=O)N2Cc3cccn3Cc3ccccc32)ccc1N | 53
* O=C(Nc1ccc(C(=O)N2Cc3cccn3Cc3ccccc32)cc1)c1sc2ccccc2c1Cl | 39
* O=C(Nc1ccc(C(=O)N2Cc3cccn3Cc3ccccc32)cc1)c1ccc2[nH]ccc2c1 | 32

###

System: Vasopressin V1
Test: Vasopressin V1 Antagonist Activity in Conscious Rats (vasopressin vasopressor response)
Type: in vivo, rat
Settings: 10 mg/kg i.v., VAS 0.02 i.u./kg, 30 min, SHR
QUANTITY: % Inhibition (%)

* O=C(Nc1ccc(C(=O)N2Cc3cccn3Cc3ccccc32)cc1)c1ccccc1F [Example 8] | 54
* Cc1ccccc1C(=O)N(C)c1ccc(C(=O)N2Cc3cccn3Cc3ccccc32)cc1 [Example 384] | 61
* COc1cc(Cl)ccc1C(=O)Nc1ccc(C(=O)N2Cc3cccn3Cc3ccccc32)cc1 [Example 89] | 92
* CSc1ccccc1C(=O)Nc1ccc(C(=O)N2Cc3cccn3Cc3ccccc32)cc1 [Example 85] | 75
* Cc1ccccc1C(=O)Nc1ccc(C(=O)N2Cc3cccn3-c3ccccc32)cc1 [Example 14] | 20

###

Tested on: Vasopressin V1
Assay: Vasopressin V1 Antagonist Activity in Conscious Rats (vasopressin vasopressor response)
Format: in vivo, rat
Design: unit not given here
Conditions: 10 mg/kg i.v., VAS 0.01 i.u./kg, 30 min, SHR
QUANTITY: Average Change

- O=C(Nc1ccc(C(=O)N2Cc3cccn3Cc3ccccc32)cc1)c1cccc(F)c1F: 4
- COc1ccccc1C(=O)Nc1ccc(C(=O)N2Cc3cccn3Cc3ccccc32)cc1: 6.5
- Cc1cc(C(=O)N2Cc3cccn3Cc3ccccc32)ccc1NC(=O)c1ccc(Cl)cc1Cl: 9.5
- CCOc1ccccc1C(=O)Nc1ccc(C(=O)N2Cc3cccn3Cc3ccccc32)cc1: 10.5
- Cc1ccccc1CC(=O)Nc1ccc(C(=O)N2Cc3cccn3Cc3ccccc32)cc1: 2

###

Tested on: Vasopressin V1
Test: Vasopressin V1 Antagonist Activity in Conscious Rats (vasopressin vasopressor response)
Format: in vivo, rat
Settings: 10 mg/kg i.v.
The following compounds are shown together with reported Time (of max. % inhibition) values.
QUANTITY: Time (of max. % inhibition) (min)

• Cc1cccc(C(=O)Nc2ccc(C(=O)N3Cc4cccn4Cc4ccccc43)cc2)c1C [Example 467] = 120
• O=C(Nc1ccc(C(=O)N2Cc3cccn3Cc3ccccc32)cc1)c1cccc(Cl)c1Cl [Example 468] = 30
• O=C(Nc1ccc(C(=O)N2Cc3cccn3Cc3ccccc32)cc1)c1c(Cl)cccc1Cl [Example 469] = 30
• O=C(Nc1ccc(C(=O)N2Cc3ccc(CO)n3Cc3ccccc32)cc1)c1ccc(Cl)cc1Cl [Example 581] = 30
• Cc1c(F)cccc1C(=O)Nc1ccc(C(=O)N2Cc3ccnn3Cc3ccccc32)cc1 [Example 517] = 90
• Cc1ccccc1NC(=O)c1ccc(C(=O)N2Cc3cccn3Cc3ccccc32)cc1 [Example 484] = 300
• Cc1ccc(F)cc1C(=O)Nc1ccc(C(=O)N2Cc3cccn3Cc3ccccc32)c(Cl)c1 [Example 482] = 60
• CN(C)CN(C(=O)c1ccc(Cl)cc1Cl)c1ccc(C(=O)N2Cc3cccn3Cc3ccccc32)cc1 [Example 490] = 90
• COc1cc(C(=O)N2Cc3cccn3Cc3ccccc32)ccc1NC(=O)c1ccc(Cl)cc1Cl [Example 478] = 120
• O=C(Nc1ccc(C(=O)N2Cc3cccn3Cc3ccccc32)cc1)c1sccc1Cl [Example 476] = 30
• Cc1cc(C(=O)N2Cc3cccn3Cc3ccccc32)ccc1NC(=O)c1ccc(Cl)cc1Cl [Example 99] = 120
• Cc1ccccc1C(=O)Nc1ccc(C(=O)N2Cc3ccnn3Cc3ccccc32)cc1 [Example 210] = 90
• COc1cc(C(=O)N2Cc3cccn3Cc3ccccc32)ccc1NC(=O)c1cccc(F)c1C [Example 479] = 60
• O=C(Nc1ccc(C(=O)N2Cc3cccn3Cc3ccccc32)cc1)c1cc([N+](=O)[O-])ccc1Cl [Example 480] = 300
• CC(=O)OC(C(=O)Nc1ccc(C(=O)N2Cc3cccn3Cc3ccccc32)cc1)c1ccccc1 (stereo not shown) [Example 587] = 60
• Cc1ccccc1C(=O)Nc1ccc(C(=O)N2Cc3cccn3Cc3sccc32)cc1 [Example 267] = 60

Attribution: patent US5624923A
